Assay Explanation: Identification of proteins required for the processing of the EWS-FLI1 nascent transcript;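 note: robust z of luciferase light less the median z of siRNAs with the same seed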
Experimental Context: TC32 Ewing sarcoma NR0B1-luc vs CMV-luc (EWS-FLI1 target promoter against control promoter), 48 h; screened at 20 nM (by protocol)
The full ranking holds about 59,000 sequences; the median of the read-out is about -0.00055, and the lowest 2% start at about -2. The entries come from a sample that favours the lowest values as a whole.
Each entry below carries its recorded seed-corrected z-score.
Value Kind: seed-corrected z-score

> print(dat)
                            polymer.sequence              value.kind  quantitative.result
 1          UAUUUGGGUGGUUCAGUUG against NEK6  seed-corrected z-score              -0.0182
 2         UCUGGAAUUUGACUGCUCG against RPL24  seed-corrected z-score               -0.838
 3        UUCCGGUUCCUCAUCUUCU against NUCKS1  seed-corrected z-score             -0.00682
 4        AAUUUUAUCACCCAGAAAC against FCGR2B  seed-corrected z-score                0.134
 5      AUCUUUACGAGCUUCAGCC against FAM185BP  seed-corrected z-score                 1.55
 6       UGCGGUUGACCGUAUAGAC against KBTBD13  seed-corrected z-score                -2.49
 7          UGCGUUUUCAGCUGGUUAC against MYNN  seed-corrected z-score                -3.83
 8         AAUGAUCCCACAGAUAUCA against IKZF1  seed-corrected z-score                0.796
 9          UCCUGUUCCUUGAUAUUGU against GZMH  seed-corrected z-score               -0.564
10      AUUGUGAUGAACCUCGUCC against ARHGAP40  seed-corrected z-score               -0.617
11           ACAGAUAUCACAGGUAACC against MCU  seed-corrected z-score                0.266
12          UUGAAUUCAUUGCAUGUCC against CTSZ  seed-corrected z-score               0.0627
13        UGAAGUCGUAGAUCUCACG against PTDSS2  seed-corrected z-score                -2.62
14         AUAGAUGCGAUCUAUGAGC against TRE17  seed-corrected z-score                0.156
15        AGACAUAACACCUUCUUCA against RPL10A  seed-corrected z-score                -2.86
16        UGUUCAAUCUUGGAGCUGG against LRRC8E  seed-corrected z-score                 1.15
17        AUAUUAGCAUUCUUAAUGG against ABCB10  seed-corrected z-score               -0.347
18  UAAGAUACUAUGGGAAAUA against C20orf166-AS1  seed-corrected z-score                -2.11
19         AAACUAGUAACUCCUCGUC against PRDM8  seed-corrected z-score                -2.41
20         UUCUUUAUGCACAACUCCC against MYO1C  seed-corrected z-score                -2.91
21     UGGUGAUUCAGAUAGCUGG against ARHGAP11A  seed-corrected z-score                -0.84
22        UUCUGUACGCAGGUGAUUG against COL1A1  seed-corrected z-score               0.0612
23      UUCGUUGUCUCGAAGGGCU against TRAPPC2L  seed-corrected z-score                -2.92
24       AACCGAAGGAGAUUCCUGG against C8orf49  seed-corrected z-score                0.161
25        UUAUGUUUUCCUACUCCAC against TCEAL1  seed-corrected z-score                 -2.4
26      UCCCGGGACAGCAUGUAGU against USP17L9P  seed-corrected z-score                0.146
27         UCUUCGUCAUCGUUCAUUC against ZC3H4  seed-corrected z-score                -2.37
28       AAACUGUGAAGCGUAAGUG against FAM188B  seed-corrected z-score                -4.34
29       UGUGAUGUUAGCAAUCUUC against TAS2R41  seed-corrected z-score               -0.517
30          AUACCUGCAGUGAACAUUU against ECH1  seed-corrected z-score                -3.28
31        UCUACAUCAAUCAAAUAUC against DUSP11  seed-corrected z-score                 1.23
32        AACGAAAUAAAAGCUGUCC against CFAP69  seed-corrected z-score               -0.411
33         UUUCUUCCCAGGUGUCUUG against PTHLH  seed-corrected z-score                -2.12
34         UCAGAAGUAACAGCAGAUC against FANCG  seed-corrected z-score                0.307
35       UCAUUGAAGUGCUUAGUGG against RASGRF1  seed-corrected z-score               -0.277
36       UUCUGAUCAAGGCUAGACC against SHROOM3  seed-corrected z-score               -0.584
37       AAUGUCACAAAAGUUCCGU against PGLYRP3  seed-corrected z-score               -0.707
38      AAUCUGUCUGUAGGUAUCC against TBC1D22B  seed-corrected z-score                -0.38
39         UUUUCUGCAGCUUUAAGGG against IL17C  seed-corrected z-score                 1.34
40         AUGGGAAUAGGAAAGUAUG against OR2M4  seed-corrected z-score                -2.09
41         ACAACUAUGAUUUUAAGGC against ACSL1  seed-corrected z-score                0.252
42          UCAAGGAUAAGAGAGAUUG against RORC  seed-corrected z-score                0.034
43        UCUCUGCUAACGAUAACUC against PIWIL1  seed-corrected z-score              -0.0232
44          UACAUAGUAAACUCGCCCG against ITCH  seed-corrected z-score                 0.22
45          UGAGUAAACAGCCUCAGUC against CMIP  seed-corrected z-score               -0.223

Source of measurements: PubChem BioAssay AID1159506
